FYI, the data here is from ChEMBL document CHEMBL4513216.

System: Plasmodium berghei
Assay: Screen against P. berghei liver stage (PbLuc), transformed with Luciferase, at 10uM
Assay type: functional, HepG2
Conditions: tested at 10 uM
Out of some 69,000 compounds screened, about 8,600 (12%) showed an effect of 50% or more. The list comes from a sample in which strong results are over-represented; it also holds close analogues and randomly drawn compounds.
measured_quantity: INHIBITION (%)
I only need the number, in %, no unit after it.

As a guide, the following entries are already answered.
>>> print(df.to_string())
                                   compound  measurement_units  numeric_value
0  O=C(CCC1CCCN(C(=O)CCc2ccc(F)c(F)c2)C1)NC1CC1 (configuration not stated)                  %           75.4
1  C[C@@H]1CN(c2nc(N)nc3c2CCC3)CC[C@@]1(O)C1CCC1                  %           83.3
2  Cc1ccc(N2C[C@H](O)[C@@H](N3CCN(c4ccccn4)CC3)C2)nn1                  %           6.29
3             Cc1ccc(N2CCN(C)c3ncccc3C2)nn1                  %           48.2
4  O=C1CCC2(CCN(CC[C@@H](O)c3ccccc3)CC2)CN1CC1CC1                  %          -51.7
5  COc1ccc(-c2cc3nc(CCNC(=O)C4CC4)nn3cn2)cc1                  %          8.915
6  CC(=O)N1N=C(c2ccccc2)OC1C(=O)NCCc1ccc(Cl)cc1 (configuration not stated)                  %          -53.7
7  CN(C)C(=O)N1C[C@H]2CC[C@@H](C1)N(Cc1nnc(C3CC3)o1)C2                  %             28
8           NC(=O)c1ccc(NC(=O)c2ccncc2F)cn1                  %              9
9  CCCn1nc(C)c(CN2CC3(CCOC3)CCC2=O)c1C (configuration not stated)                  %           64.5

# lookup: "Cc1ccn2c(=O)cc(CSCC(=O)Nc3nnc(C(C)C)s3)nc2c1" on Plasmodium berghei, INHIBITION = 52.5

# lookup: "Cc1cccn2c(=O)cc(CSCC(=O)Nc3nnc(C(C)C)s3)nc12" on Plasmodium berghei, INHIBITION = 14.7

# lookup: Cc1ccc(N2CCC3(CC2)CCN(C2CCOC2)CC3)nn1 (configuration not stated) on Plasmodium berghei, INHIBITION = 8.85

# lookup: "COc1ccc(CN2CC[C@H](c3nc4cccc(C(N)=O)c4[nH]3)C2)cc1" on Plasmodium berghei, INHIBITION = 22.3

# lookup: "CN(Cc1ccsc1)C(=O)c1ccc2c(c1)NC(=O)CO2" on Plasmodium berghei, INHIBITION = 6.8

# lookup: "O=C(CCc1nccs1)N1CCN(c2nccs2)CC1" on Plasmodium berghei, INHIBITION = -2.19

# lookup: "Cn1cc(CN2CCc3onc(COCC4CC4)c3C2)cn1" on Plasmodium berghei, INHIBITION = 5.96

# lookup: Cc1nc2ccc(CN3CC4(CCOC4)CCC3=O)cc2[nH]1 (configuration not stated) on Plasmodium berghei, INHIBITION = 67.4

# lookup: "Cc1cc(CNC(=O)Cc2c(C)nc3cc(=O)[nH]n3c2C)no1" on Plasmodium berghei, INHIBITION = 31.1

# lookup: "NC(=O)c1cccc2nc([C@H]3CCN(Cc4ccccc4F)C3)[nH]c12" on Plasmodium berghei, INHIBITION = 14.9

# lookup: "CC(=O)N[C@@H]1CN(C2CCN(c3cccc(Cl)c3)CC2)C[C@H]1C(C)C" on Plasmodium berghei, INHIBITION = 30.8

# lookup: "CC(C)CN1C[C@@H]2C[C@H](C(=O)N3CCCC3)[C@H](C1)O2" on Plasmodium berghei, INHIBITION = 31.5

====

Tested on: Plasmodium berghei
Test: Screen against P. berghei liver stage (PbLuc), transformed with Luciferase, at 10uM
Assay type: functional, HepG2
Details: tested at 10 uM
Screen size: about 69,000 compounds; about 8,600 (12%) showed an effect of 50% or more. The sample holds strong results, similar compounds and a random draw of the others, so the mix is not that of the screen.
Listed compounds paired with reported INHIBITION
I only need the number, in %, no unit after it.

As a guide, the following entries are already answered.
In [3]: df
Out[3]:
                                   compound  numeric_value
0  CCn1cc(NC(=O)C2CCN(CC(=O)NC(C)(C)CC)CC2)cn1             10
1     Nc1cc2c(nn1)CCN(C(=O)c1cccc3c1OCO3)C2            -16
2  Cc1cccc(C(=O)N2Cc3ccccc3C3(CCN(C)CC3)C2)n1           36.9
3                 Cc1cc(CN(CCO)c2ccccc2)on1           45.5
4  Cc1ccsc1CN(Cc1cccnc1)C1CC(C)(C)NC(C)(C)C1           33.7

For reference, reported INHIBITION for Cc1cc(NC(=O)C(C)N2CCN(c3ccccc3F)CC2)no1 (stereo unspecified) stands at 8.38

For reference, reported INHIBITION for CCc1ncc(C(=O)N2CCCC2Cn2cccn2)s1 (stereo unspecified) stands at 49.8

For reference, reported INHIBITION for CC(NCc1ccncc1)c1cc2c(cc1Br)OCCO2 (stereo unspecified) stands at 53.9

====

Listed molecules paired with reported INHIBITION
System: Plasmodium berghei
Experiment: Screen against P. berghei liver stage (PbLuc), transformed with Luciferase, at 10uM
Assay type: functional, HepG2
Details: tested at 10 uM
Out of some 69,000 compounds screened, about 8,600 (12%) showed an effect of 50% or more. The entries come from a sample that favours strong results as a whole.
I only need the number, in %, no unit after it.

As a guide, the following entries are already answered.
>>> df
                                   molecule  numeric_value
0  CC1CCN(c2ccc(=O)n(CC(=O)N(C)Cc3ccccc3)n2)CC1          -17.1
1      O=C(NCc1cncc2c1CCN(Cc1ccoc1)C2)C1CC1           5.96
2  CN(C)c1ncc(C2Nc3cc(Cl)ccc3C3=NCCCN32)cn1 (centres undefined)           48.4

Okay, next one:
For reference, reported INHIBITION for O=C(c1ccc[nH]1)N1Cc2nccn2CC(Cn2ncccc2=O)C1 (centres undefined) stands at -87.3

====

Tested on: Plasmodium berghei
Assay: Screen against P. berghei liver stage (PbLuc), transformed with Luciferase, at 10uM
Assay type: functional, HepG2
Settings: tested at 10 uM
Among all 69,000 compounds or so, about 8,600 (12%) showed an effect of 50% or more. The sample as a whole holds a higher share of strong results than the screen did.
Threshold rule: INHIBITION greater than or equal to 40% is fulfilled; below that, not fulfilled.

Q: Test whether the molecule "CN(CCCc1cnn(C)c1)Cc1cc2n(n1)CCNC2" records INHIBITION of 40% or higher.
Result: fulfilled

Q: Test whether the molecule CCOCC1CN(C(=O)Cc2ccccn2)Cc2cnn(C)c21 (stereo not given) records INHIBITION of 40% or higher.
Result: not fulfilled

Q: Test whether the molecule "O=C(C1CC1)N1CCC2(CC1)CNc1ccc(F)cc12" records INHIBITION of 40% or higher.
Result: not fulfilled

Q: Test whether the molecule "Cc1nn(C)c2cnn(CC(=O)NCc3ccc4c(c3)OCO4)c12" records INHIBITION of 40% or higher.
Result: not fulfilled

====

System: Plasmodium berghei
Assay: Screen against P. berghei liver stage (PbLuc), transformed with Luciferase, at 10uM
Type: functional, HepG2
Conditions: tested at 10 uM
Hit rate of the full screen: of about 69,000 compounds, about 8,600 (12%) showed an effect of 50% or more. The sample holds strong results, similar compounds and a random draw of the others, so the mix is not that of the screen.
Threshold rule: INHIBITION greater than or equal to 20% is criterion met; below that, criterion not met.

Study these solved cases before continuing.
>>> print(df.to_string())
                                   molecule      assayed_target     discrete_label
0  C1CCC(NC2CCCN(Cc3noc(C4CC4)n3)C2)C1 (stereo unspecified)  Plasmodium berghei  criterion not met
1  CC(C)N1CCCC1c1csc(N)n1 (stereo unspecified)  Plasmodium berghei  criterion not met

Q: Test whether the molecule "N#CCCN(Cc1ccccn1)C(=O)Nc1cccc(F)c1" records INHIBITION of 20% or higher.
Result: criterion not met

Q: Test whether the molecule "CCc1nc(C)sc1CN(Cc1ccncc1)C1CCN(C)CC1" records INHIBITION of 20% or higher.
Result: criterion not met

Q: Test whether the molecule CCc1cc(C(=O)N2CCCC(Cc3ccc(NC)nn3)C2)on1 (stereo unspecified) records INHIBITION of 20% or higher.
Result: criterion met

Q: Test whether the molecule CCC(C(=O)NCCc1ccn(-c2ccccc2)n1)N1CCCC1=O (stereo unspecified) records INHIBITION of 20% or higher.
Result: criterion not met

Q: Test whether the molecule CCC(C(=O)N1CCCSCC1)N1CCCC1=O (stereo unspecified) records INHIBITION of 20% or higher.
Result: criterion met

Q: Test whether the molecule "CN(C)[C@@H]1CCN(c2ncccn2)[C@H]1Cc1cccnc1" records INHIBITION of 20% or higher.
Result: criterion not met

Q: Test whether the molecule "O=C(Cn1ccc2ccccc21)NCc1ccc(C(=O)O)cc1" records INHIBITION of 20% or higher.
Result: criterion not met

Q: Test whether the molecule "CC(=O)N1CCN(c2cncc(C3CCNCC3)n2)CC1" records INHIBITION of 20% or higher.
Result: criterion not met
